Test system: LXRb:RXRa (NR concentration 270 nM, RXRa partner concentration 90 nM)
methodDescription: PBM binding z-score (relative to random genomic background probes); higher = stronger binding; sequences stand for … in GC…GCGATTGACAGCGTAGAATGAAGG
The recorded PBM binding z-score of each item maps onto one of these classes: low: < 0.4; moderate: ≥ 0.4 and < 2; high: ≥ 2

Here are 2 sequences together with their reported answers.
- seqText: "AATACACGGTCACTAGGCCAGAGTAGGTACGAAT"
  measuredOn: "LXRb:RXRa (NR concentration 270 nM, RXRa partner concentration 90 nM)"
  classLabel: "low"
- seqText: "TGAATGAGCTTATAAGATCAGGGAACGTTGCAAA"
  measuredOn: "LXRb:RXRa (NR concentration 270 nM, RXRa partner concentration 90 nM)"
  classLabel: "low"

Bin this entry: CCGACTGGGGCAAGATTACCATAACGCACAGCCA
low

Hi there! Could you help me figure out the category for GCTTGTAGATCAAGGTTAAGGAAGACTAAGCTAA please?
low

* * *

Test system: PPARg:RXRa 270nM:90nM, anti-RXR (NR concentration 270 nM, RXRa partner concentration 90 nM)
methodDescription: PBM binding z-score (relative to random genomic background probes); higher = stronger binding; sequences stand for … in GC…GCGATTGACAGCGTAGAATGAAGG
Quick rule: PBM binding z-score of at least 1 means Criterion met, below that means Criterion not met.

Would you please look over these solved cases?
- seqText: "ATATGTAGGTTAAGTGTCATTCAGGTTGGTTCGC"
  classLabel: "Criterion met"
- seqText: "CCTACTGGGCCATCTGGTCATTGATATCAACGTT"
  classLabel: "Criterion met"
- seqText: "ATATGTAGGTTAGCTGGGGTCATCCAGACTAGGC"
  classLabel: "Criterion met"
- seqText: "TCTTGTAGATTAGCAGGTTAAGAAAGCTGGCCAA"
  classLabel: "Criterion met"
- seqText: "GCTAGCAGGCCATATGGGTCACTCAATGACGGGC"
  classLabel: "Criterion met"

Is PBM binding z-score for CCAGACAGCTGAGAAGGTAACTCAGCCTCGATTA at or above 1?
Criterion not met

* * *

Test system: RARg:RXRa (NR concentration 270 nM, RXRa partner concentration 90 nM)
methodDescription: PBM binding z-score (relative to random genomic background probes); higher = stronger binding; sequences stand for … in GC…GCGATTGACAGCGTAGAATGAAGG
Label rule, in plain words: PBM binding z-score of 0.9 and up is yes (1), under 0.9 is no (0).

Examples with answers:
- seqText: "AGGATGAGGTTACCAAAGATCAGGGAAACGCTTG"
  classLabel: "yes (1)"
- seqText: "GATACAGGGTCGAGGCCAGAGTACGCGTATTGAT"
  classLabel: "yes (1)"
- seqText: "ACTATTAGTAGACTTAGGGCAACCGATACGACGC"
  classLabel: "no (0)"
- seqText: "CCAGACAGGGGAAAGGTAACTCAGTCTGGTACGC"
  classLabel: "no (0)"
- seqText: "CCTCGGAGGACAACATGAGGTCAGAGCTGCCAGA"
  classLabel: "yes (1)"

Reported PBM binding z-score reaches at least 0.9 for GGAACGAGGGCTAAGTTGATAGCATCTGTCGACG ?
no (0)

Is reported PBM binding z-score greater than or equal to 0.9 here: TCATATAGTTAAACAGGTGAAAGTCCGTAAGTTA
no (0)

Does the reported PBM binding z-score for CCTCGGGGGACAACAGGAGGTCAGAGCTGCCAGA fall at or above the 0.9 mark?
yes (1)

Threshold query (PBM binding z-score >= 0.9) on GGAACGAGGGCAACGTTGATAGCATCTGTCGACG
yes (1)

Is PBM binding z-score for GCTATTAGTTGAAAGGCCAACCGAATGATTCTCG at or above 0.9?
no (0)

* * *

Test system: PPARg:RXRa 270nM:90nM, anti-RXR (NR concentration 270 nM, RXRa partner concentration 90 nM)
methodDescription: PBM binding z-score (relative to random genomic background probes); higher = stronger binding; sequences stand for … in GC…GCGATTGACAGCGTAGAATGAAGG
// Not satisfied strictly below 3 in PBM binding z-score; Satisfied otherwise

Say whether TTACCAAGGTGAAAGGCCGTTGATGCACGCCTTG shows PBM binding z-score of 3 or more.
Satisfied

// inclusive: PBM binding z-score at least 3? input: ATATGTCGGTTAGCTGGGGTCATTCAGACTAGGC
Not satisfied

Could you verify whether the entry TCGAGTAGGTTAGGGGCATTTAGAATGGCGTCGA shows PBM binding z-score of no less than 3?
Not satisfied

Tell me whether PBM binding z-score is at least 3 here: ATTCAAAGTTCAGGACGAGGTAACGTAAAGCACG
Not satisfied

* * *

Test system: RARa:RXR (NR concentration 270 nM, RXRa partner concentration 90 nM)
methodDescription: PBM binding z-score (relative to random genomic background probes); higher = stronger binding; sequences stand for … in GC…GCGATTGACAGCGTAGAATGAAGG
Decision: PBM binding z-score compared against 2; not below it gives Satisfied, below it gives Not satisfied.

- seqText: "TAGCCAAGGTCATTGGGCCAGTATAGTACGCATC"
  classLabel: "Satisfied"
- seqText: "TCTTGTAGATCAGCAGGTTAAAAAAGCTGGCCAA"
  classLabel: "Not satisfied"
- seqText: "GCTTCTAGGTCAACTGATGGTCAGCTAAAGCTCG"
  classLabel: "Satisfied"

Kindly determine if PBM binding z-score recorded for CAAACTAGGTCACGAAAGGTGAAAGTCGAATGAC is above or exactly 2.
Satisfied

Confirm if PBM binding z-score reported for the sequence ATCGAAAGGTCGTGTGGTGAGTATACAGAAAGGC is 2 or above.
Satisfied

Quick check, PBM binding z-score >= 2? TCTCGGAGGAGACGAAAGGTCAGAGCTCGACATC
Satisfied

Has TAGCCTAGGTCAGATCGGGCCACTATACGCTATA a recorded PBM binding z-score greater than or equal to 2?
Not satisfied

Does the reported PBM binding z-score for AGAATGAGGTTTTTAAGATCAGGGAATTGCGGTC fall at or above the 2 mark?
Not satisfied

Dear colleague, could you confirm whether ATCTCTAGGTAACAGTTCAGTGAATCCCGAGGAT has PBM binding z-score at or above 2?
Not satisfied

Reported PBM binding z-score at or above 2? CCGATTGGGGCAAAGGTTACCATACTCAGTACGA
Satisfied

Check if PBM binding z-score >= 2 (inclusive). Item: ATACCAAGGTGATCGTGAGGTCGTTGTTACTAAC
Satisfied

API: above_or_equal(metric=PBM binding z-score, cutoff=2) for item CTCGAAAGGTCGTGCCCAGGTGAGTATACCAAAC
Satisfied

* * *

Test system: PPARg:RXRa IVT, anti-PPARg (NR concentration 270 nM, RXRa partner concentration 90 nM)
methodDescription: PBM binding z-score (relative to random genomic background probes); higher = stronger binding; sequences stand for … in GC…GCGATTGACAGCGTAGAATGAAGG
quantityName: PBM binding z-score
Answer using only a numeral; do not append any unit.

Observe how each entry below is paired with its result.
- seqText: "ATCTCTAGGTACAGATAGTTCAGTGAATGCAAAT"
  quantityName: "PBM binding z-score"
  measuredValue: 0.347
- seqText: "ATACCAAGGTGATCATGAGGTCGTTGATACTAAC"
  quantityName: "PBM binding z-score"
  measuredValue: 1.5
- seqText: "TCTTGTAGATCAATAGAGTTTAAGAAAGTGCGCT"
  quantityName: "PBM binding z-score"
  measuredValue: 0.625
- seqText: "CGTAGCAGGCCAATCTGGGTCACTCAAGGCTTGA"
  quantityName: "PBM binding z-score"
  measuredValue: 5.41
- seqText: "GATACAGGGTCAAGGCCAGAGGACGCGTATTGAT"
  quantityName: "PBM binding z-score"
  measuredValue: 3.97

I would be grateful if you could share the reported PBM binding z-score for TCATATATGTAATACAGGTGAAAGTCGGCATCTA .
2.27

Please give the measured PBM binding z-score for this sequence: CCAACTGGGGCATAAGGTTACCATAAGCCAGCCC
5.04

Request the reported PBM binding z-score associated with TCTTGTAGACCAACAGGAGGTTAAGAAAGATCGA
0.757

Can you look up the measured PBM binding z-score of ATCGAAAGGTCGAGGTTAGTATAGAGAAAGGGAA for me?
1.68

I would be grateful if you could share the reported PBM binding z-score for TCTATTAGTTGAAGGGCAACCAACGAGTCCGTTT .
0.417

# query: PBM binding z-score of entry AATACAGGGTCACTAGGCCTGAGTAGGTACGAAT
4.76

For the sequence TCTTGTAGATCAATAGAGGTTAAGAATGTGCGCT , what PBM binding z-score is on record?
1.37
